Tested on: MALME-3M melanoma
Test: NCI tumour cell line growth inhibition, 48 h
List of TGI values.

N/C(=N\N=C\c1c[nH]c2cc(C(F)(F)F)ccc2c1=O)NO :: > 10 µM

Please turn your attention to the following entry.
Name the reported TGI value associated with the molecule COc1ccc(N=C2C(=Nc3ccc(OC)cc3)N(S(=O)(=O)c3ccccc3)C(=S)N2c2ccccc2)cc1
> 100 µM

----------
Tested on: SF-295 CNS
Test: NCI tumour cell line growth inhibition, 48 h
This listing pairs compounds with measured TGI.

Oc1c(CN2CCCC2)cc(COCc2ccc(Br)cc2)c2cccnc12 :: 3.98 µM

Which measured TGI value corresponds to COC(=O)c1ccc(NC(=O)Nc2ccc3oc(=O)c4ccccc4c3c2)cc1 ?
> 100 µM

So what's the measured TGI for this one? Cc1ccc(S(=O)(=O)N/N=c2\c(C)c(C3=NS(=O)(=O)c4cc(S(N)(=O)=O)c(Cl)cc4N3)oc3c(Cl)cc(Cl)cc23)cc1
> 100 µM

Entry COC(=O)[C@]12CC[C@@H](C)[C@H](C)[C@@H]1C1=CC[C@@H]3[C@@]4(C)C(C=O)=C[C@@](C)(COC(=O)c5ccco5)[C@@H]4C(=O)C[C@@]3(C)[C@]1(C)CC2 has what TGI?
> 100 µM

# query: TGI of entry COc1ccc(N=C2C(=Nc3ccc(OC)cc3)N(S(=O)(=O)c3ccccc3)C(=S)N2c2ccccc2)cc1
> 100 µM

Please report the recorded TGI for Nc1c(-c2nc3ccccc3o2)sc(=S)n1-c1ccc(Cl)cc1 .
27.3 µM

Param item = C=CCn1c(C23CC4CC(CC(C4)C2)C3)n[nH]c1=S ; retrieve measured TGI.
> 100 µM

Given the compound O=C1c2ccccc2C(=O)c2c(NCCNCCO)ccc(O)c21 , what is its reported TGI?
15.8 µM

Entry COC(=O)C1=C(C(=O)OC)C23CC1C1C(C(=O)OC)=C(C(=O)OC)C12C1C=CC3C2C(=O)OC(=O)C21 (centres undefined) has what TGI?
> 100 µM

Taken from PubChem BioAssay (NCI).
